System: PC3 (prostate)
Assay: In vitro cytotoxic activity MTT assay, PC3
Assay type: cell-based
Conditions: Homo sapiens, Prostate cell; PC3 (prostate) cells, exposed for 96 hours; read-out: Cytotoxicity activity IC50 (50% inhibition of cell proliferation)
Recorded Metric: IC50 (nM)
The figure you give is taken to be in nM; do not add the unit.

QUERY: # IC50 lookup, item O=C(O)c1ccn2c1c(Nc1cccc(Cl)c1)nc1ccncc12 [Compound 1]
RESULT: 2800

---

Tested on: MCF7 (breast)
Assay: In vitro cytotoxic activity MTT assay, MCF7
Type: cell-based
Conditions: Homo sapiens; MCF7 (breast) cells, exposed for 96 hours; read-out: Cytotoxicity activity IC50 (50% inhibition of cell proliferation)
Excerpt: Compounds 1-16 were screened for their in vitro cytotoxic activity utilizing a 3-(4,5-dimethyl-thiazol-2-yl)-2,5-diphenyltetrazolium bromide (MTT) assay against selected cancer human cell lines consisting of PC3 (prostate), HCT116 (colon), A375 (melanoma), H1299 (lung), MIAPaCa-2 (pancreas), HL60 (leukemia), MCF7 (breast), MDA-MB-231 (breast) (T. Mosmann, J. Immunol. Meth., 1983, 65, 55-63). […]
Recorded Metric: pIC50
Recall that pIC50 is obtained by taking minus log10 of the concentration measured in molar.

QUERY: # pIC50 lookup, item O=C(O)c1ccn2c1c(Nc1cccc(Cl)c1)nc1ccncc12
RESULT: 5.23

---

Biological target: recombinant human CK2 (RRββ-holoenzyme) (Homo sapiens)
Sequence (P68400 whole entry): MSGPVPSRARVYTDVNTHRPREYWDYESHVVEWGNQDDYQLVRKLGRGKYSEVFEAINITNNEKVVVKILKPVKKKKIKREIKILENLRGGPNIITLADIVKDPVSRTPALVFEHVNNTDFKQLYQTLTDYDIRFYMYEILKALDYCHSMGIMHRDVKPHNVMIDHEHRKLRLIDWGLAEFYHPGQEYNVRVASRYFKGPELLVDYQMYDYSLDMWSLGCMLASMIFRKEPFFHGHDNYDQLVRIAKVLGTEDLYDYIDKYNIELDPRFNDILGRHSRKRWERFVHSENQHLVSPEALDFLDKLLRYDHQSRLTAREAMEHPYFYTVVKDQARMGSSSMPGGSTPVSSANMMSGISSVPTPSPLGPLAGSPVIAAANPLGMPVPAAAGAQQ
Sequence (P67870 whole entry partner): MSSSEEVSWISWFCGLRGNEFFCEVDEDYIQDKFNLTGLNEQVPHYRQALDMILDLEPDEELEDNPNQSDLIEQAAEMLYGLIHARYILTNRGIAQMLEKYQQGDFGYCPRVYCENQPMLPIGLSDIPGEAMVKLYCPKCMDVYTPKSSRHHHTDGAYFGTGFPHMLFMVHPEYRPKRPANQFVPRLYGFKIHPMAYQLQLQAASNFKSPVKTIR
Experiment: CK2 Kinase Assay (radiometric, [γ-33P] ATP)
Settings: final ATP concentration 15 μM, 10 min at 30° C., eight concentrations; read-out: protein kinase CK2 activity IC50
Recorded Metric: pIC50
Recall that pIC50 is obtained by taking minus log10 of the concentration measured in molar.

QUERY: # pIC50 lookup, item O=C(O)c1ccn2c1c(Nc1cccc(Cl)c1)nc1ccncc12 [Compound 1]
RESULT: 7.04
